Measured growth of individual entries
Test system: HCC-2998 colon
Experiment: NCI-60 one-dose screen, 48 h (100 = growth as untreated, 0 = no growth, -100 = all killed)
Details: 10 µM
About 83,000 compounds went through this panel and 20% of them were active in at least one assay; those are over-represented in the sample as a whole.
Report only the number, with the unit % understood.

// solved cases for growth follow
MOLECULE | QUANTITY | UNIT_OF_MEASURE | RECORDED_RESULT
O=C(Nc1nc(-c2ccccc2Cl)cs1)c1cc(-c2ccc(Cl)cc2)nc2ccc(Cl)cc12 | growth | % | 90.7
COc1ccc(OC)c(/C=C/c2nnc(Nc3ccc(Cl)cc3)o2)c1 | growth | % | 55.4
N=C(N)c1ccc(-c2ccc(-c3cccs3)o2)cc1 | growth | % | -66

Exercise: Would you please give the reported growth of COC(=O)C(C(C[N+](=O)[O-])c1ccccc1)=P(c1ccccc1)(c1ccccc1)c1ccccc1 (stereo unspecified) with HCC-2998 colon?
Key: 101

Exercise: Would you please give the reported growth of `COc1ccc2c(c1)-c1c(c3cc(OC)ccc3n(CCN(C)C)c1=O)C2=O` with HCC-2998 colon?
Key: 34.9

Exercise: Would you please give the reported growth of `ClCCOCCn1cnc2c(Cl)nc(Cl)nc21` with HCC-2998 colon?
Key: -90.2

Exercise: Would you please give the reported growth of CCN(CC)CCC(CNc1c(C)cnc2cc(Cl)ccc12)c1ccc(Cl)c(Cl)c1 (stereo unspecified) with HCC-2998 colon?
Key: -18.2

Exercise: Would you please give the reported growth of `Cc1cccc(C)c1NC(=O)c1sc2nc3c(cc2c1N)C(=O)CCC3` with HCC-2998 colon?
Key: 72.5

---

Measured growth of individual entries
Test system: NCI/ADR-RES ovarian
Assay: NCI-60 one-dose screen, 48 h (100 = growth as untreated, 0 = no growth, -100 = all killed)
Conditions: 10 µM
Compounds without any hit were thinned out: in the full panel of roughly 83,000, 20% have a hit.
Report only the number, with the unit % understood.

// solved cases for growth follow
MOLECULE | growth (%)
CCCCN(CCCC)c1cc(C(=O)CCCCCN)c2ccccc2n1 | 71.6
CC(C)=CCc1cc(O)cc2c1OC(C=C(C)C)C1=C2C(=O)C2=C(C1=O)S(=O)(=O)CCN2 (stereo not given) | 91.7

Exercise: Using the record for `CC(=O)n1c(-c2ccc(Cl)c(Cl)c2)cn(-c2ccc(Cl)cc2)c1=O` , state its measured growth.
Key: 11.8

Exercise: Using the record for COc1cc(C2CC(c3ccc(Nc4ccnc5cc(Cl)ccc45)cc3)=NN2c2ccc(Cl)cc2)cc(OC)c1OC (stereo not given) , state its measured growth.
Key: 29.6

Exercise: Using the record for `CSc1nn(-c2ccccc2)c2ncnc(Oc3ccc(C)cc3)c12` , state its measured growth.
Key: 93.4

Exercise: Using the record for `Nc1c(C(=O)Nc2cccc3ccccc23)sc2nc3c(cc12)C(=O)CCC3` , state its measured growth.
Key: 2.15

Exercise: Using the record for `O=C1/C(=C\c2ccc(Cl)cc2)CN(C(=S)Nc2ccccc2)C/C1=C\c1ccc(Cl)cc1` , state its measured growth.
Key: 1.25

Exercise: Using the record for `O=C(O)CN1C(=O)c2cccc3cccc(c23)C1=O` , state its measured growth.
Key: 102

Exercise: Using the record for `ClCCOCCn1cnc2c(Cl)nc(Cl)nc21` , state its measured growth.
Key: 101

Exercise: Using the record for CCc1ccc2c(c1)N(CCO)C1=C(C(=O)OC1)C2c1cc(OC)c(OC)c(OC)c1 (stereo not given) , state its measured growth.
Key: -3.11

---

System: SK-MEL-2 melanoma
Assay: NCI-60 one-dose screen, 48 h
Details: 10 µM
This is part of a sample that, as a whole, favours compounds with a hit. Of some 83,000 tested, about 20% had one in any assay. Activity calls are given as the source filed them. Rule for the calls: active = growth percent below 10; inactive = the rest.
Just give me one of these, please: True (active), False (inactive)

COMPOUND | CLASS_LABEL
Cn1c([N+](=O)[O-])cnc1/C=C1\Oc2ccc(Cl)cc2C1=O | True
Cc1ccc(NC(=O)Nc2nc3ccccc3s2)cc1NC(=O)Nc1nc2ccccc2s1 | False
CCN1CCC2(CC1)OC(c1ccccc1)C(c1ccccc1)O2 (stereo unspecified) | False
O=C(O)CC(Cl)C(Cl)CC(=O)O (stereo unspecified) | False
COc1ccc2c(c1)/C(=C\c1c[nH]c3ccc(OC)cc13)C(=O)N2 | False

Shift focus to the following entry.
Exercise: Called result for `O=[N+]([O-])c1cccc(N=Cc2ccc3c(c2)OCO3)c1`
Key: False

---

Test system: UO-31 renal
Test: NCI-60 one-dose screen, 48 h (100 = growth as untreated, 0 = no growth, -100 = all killed)
Conditions: 10 µM
About 83,000 compounds went through this panel and 20% of them were active in at least one assay; those are over-represented in the sample as a whole. Active and inactive are the calls of the source. Rule for the calls: active = growth percent below 10; inactive = the rest.
Measured growth of individual entries

// solved cases for growth follow
MOLECULE | RECORDED_RESULT
Clc1ccc(-c2cn(-c3ccccc3)c(-c3ccccc3)n2)c(Cl)c1 | -66.9% (active)
CC(C)(C#N)Nc1ccccc1 | 103% (inactive)
c1ccc(CSc2nnc3c4c5c(sc4nc(-c4cccnc4)n23)CCCCCC5)cc1 | 94.8% (inactive)
COc1ccc(-c2cc(-c3ccc(N(C)C)cc3)c(C#N)c(N3CCCC3)n2)cc1 | 81.7% (inactive)
COc1cc2nc(Nc3cccc(C(=O)O)c3)nc(N)c2cc1OC | 78.3% (inactive)

Exercise: Would you please give the reported growth of `N#CCCN1C/C(=C/c2ccc(Cl)cc2)C(=O)/C(=C/c2ccc(Cl)cc2)C1` with UO-31 renal?
Key: -95.5% (active)

Exercise: Would you please give the reported growth of `Cn1c(C(N)=O)cc2c1-c1nc(Nc3ccccc3)ncc1CCC2` with UO-31 renal?
Key: 12.5% (inactive)

Exercise: Would you please give the reported growth of `O=C1/C(=C\c2ccc(Cl)cc2)CN(C(=O)c2ccccc2)C/C1=C\c1ccc(Cl)cc1` with UO-31 renal?
Key: 2.38% (active)

Exercise: Would you please give the reported growth of `CCCCOC(=O)Oc1ccc(C(=O)Oc2ccc(OCC)cc2)cc1` with UO-31 renal?
Key: 85.6% (inactive)

Exercise: Would you please give the reported growth of `COC(=O)c1ccc(=O)oc1` with UO-31 renal?
Key: 75.7% (inactive)

Exercise: Would you please give the reported growth of `Cc1ccc(C)c(C(O)(c2cc(C)ccc2C)C2(O)CCCCC2)c1` with UO-31 renal?
Key: 87.7% (inactive)

Exercise: Would you please give the reported growth of `COc1cc(-c2nc(-c3nnc(-c4ccc(F)c(Cl)c4)o3)c3ccccn23)cc(OC)c1OC` with UO-31 renal?
Key: 29.5% (inactive)

Exercise: Would you please give the reported growth of `CCOC(=O)c1ccoc1` with UO-31 renal?
Key: 95.4% (inactive)

Exercise: Would you please give the reported growth of `N#Cc1ncc(-c2cc(F)c(F)c(F)c2)c(NC2CCCCCC2)n1` with UO-31 renal?
Key: 89.4% (inactive)

---

Measured growth of individual entries
Tested on: SK-MEL-5 melanoma
Assay: NCI-60 one-dose screen, 48 h (100 = growth as untreated, 0 = no growth, -100 = all killed)
Conditions: 10 µM
The panel holds about 83,000 compounds, 20% with a hit somewhere; the sample as a whole holds those more often.
Report only the number, with the unit % understood.

STRUCTURE_SMILES | QUANTITY | UNIT_OF_MEASURE | RECORDED_RESULT
Nc1c(C(=O)Nc2cccc(F)c2)sc2nc3c(cc12)C(=O)CCC3 | growth | % | 43.2
CCCCCCCCN(CCCCCCCC)CCCCCCCCCN1CCCc2cc(OC)ccc21 | growth | % | 109
COc1cc(Cl)cc(-c2nn(-c3cccc(NC(=O)Nc4cc(C(F)(F)F)cc(C(F)(F)F)c4)c3)cc2-c2ccncc2)c1 | growth | % | -79.4
CN(C)C=Nc1cc(Cl)ccc1Cl | growth | % | 101

Then this molecule:
Exercise: Using the record for `CN(C)N=Nc1nn(C(=O)Nc2ccc(Cc3ccccc3)cc2)c2ccccc12` , state its measured growth.
Key: -37.5

---

Tested on: CCRF-CEM leukemia
Experiment: NCI-60 one-dose screen, 48 h (100 = growth as untreated, 0 = no growth, -100 = all killed)
Settings: 10 µM
The panel holds about 83,000 compounds, 20% with a hit somewhere; the sample as a whole holds those more often.
Assign 1 whenever growth does not fall below 40%; assign 0 whenever it does.

The following compounds have reported results that may help.
COMPOUND | CLASS_LABEL
CCOC(=O)N1C/C(=C/c2ccc(F)cc2)C(=O)/C(=C/c2ccc(F)cc2)C1 | 0
O=C(Nc1cccc(-n2cc(-c3ccncc3)c(-c3cc(O)cc(Cl)c3)n2)c1)c1ccc(N2CCOCC2)c(C(F)(F)F)c1 | 0
C#Cc1ccc(-n2c(/C=C/c3ccc(Cl)c(F)c3)nc3ncccc3c2=O)cc1 | 0

Exercise: Please indicate if the recorded growth for `N=C(N)c1ccc(-c2ccc(-c3cccs3)s2)cc1` meets or exceeds 40%.
Key: 0

Exercise: Please indicate if the recorded growth for `COc1ccccc1CNCCCN1C(=O)c2ccc3c4c(ccc(c24)C1=O)C(=O)N(CCCN)C3=O` meets or exceeds 40%.
Key: 0

Exercise: Please indicate if the recorded growth for `COc1ccc(-c2nn(-c3cccc(NC(=O)c4ccc(N5CCOCC5)c(C(F)(F)F)c4)c3)cc2-c2ccncc2)cc1Cl` meets or exceeds 40%.
Key: 0

Exercise: Please indicate if the recorded growth for Clc1ccc(/C=C2\CCCC3=C2N=C2SC=NN2C3c2ccc(Cl)cc2)cc1 (centres undefined) meets or exceeds 40%.
Key: 1

Exercise: Please indicate if the recorded growth for `Cc1ccc(NC(=O)Nc2nc3ccccc3s2)cc1NC(=O)Nc1nc2ccccc2s1` meets or exceeds 40%.
Key: 1

Exercise: Please indicate if the recorded growth for `COc1ccc(/C=C2/CN(C(=O)c3ccc(C)cc3)C/C(=C\c3ccc(OC)cc3)C2=O)cc1` meets or exceeds 40%.
Key: 1
